All values here come from the Immune Epitope Database (IEDB).

- study-system: HLA-B*58:01
- assay-method-text: IEDB peptide-MHC binding, purified MHC/competitive/fluorescence; filed as Kd, often an IC50 or EC50 that approximates it; bounds were set here for any values at or beyond the usual limits of such assays
- conditions: source organism: Bacillus anthracis str. A0488
parameter-measured: Kd (nM)
Numeric answer only, unit nM assumed.

Exercise: Given `ISASLAALF` , report its Kd on HLA-B*58:01.
Solution: 1.7

----------
- study-system: HLA-A*29:02
- assay-method-text: IEDB peptide-MHC binding, purified MHC/competitive/radioactivity; filed as Kd, often an IC50 or EC50 that approximates it; bounds were set here for any values at or beyond the usual limits of such assays
- conditions: source organism: Mammarenavirus machupoense
parameter-measured: pKd
Reminder that pKd is minus the log10 of a molar concentration.

Exercise: Look up and report measured pKd for this entry: `LCMLNNSFYY`
Solution: 8.27
